Where these numbers come from: the NIST ThermoML archive (doi:10.1021/je9002724)

test: activity coefficient (dimensionless); of the first substance listed, at infinite dilution; xn = mol fraction of the nth substance listed; conditions: 333.15 K; Liquid; Chromatography; x1 = 0
Property Name: activity coefficient

These solved cases illustrate the format of a correct answer.
| Compound | Property Name | Observed Result |
| --- | --- | --- |
| CCCCCCC [heptane] + C[n+]1ccn(CCO)c1.F[B-](F)(F)F | activity coefficient | 1610 |
| C1CCCCC1 [cyclohexane] + C[n+]1ccn(CCO)c1.F[B-](F)(F)F | activity coefficient | 593 |
| C=Cc1ccccc1 [styrene] + C[n+]1ccn(CCO)c1.F[B-](F)(F)F | activity coefficient | 14.6 |
| CC1CCCCC1 [methylcyclohexane] + C[n+]1ccn(CCO)c1.F[B-](F)(F)F | activity coefficient | 486 |

Query: Given Cc1ccccc1 [toluene] + C[n+]1ccn(CCO)c1.F[B-](F)(F)F , state its recorded activity coefficient.
Result: 17.5

Query: Given CCCCCCCCC [nonane] + C[n+]1ccn(CCO)c1.F[B-](F)(F)F , state its recorded activity coefficient.
Result: 599

Query: Given Cc1ccccc1C [1,2-dimethylbenzene] + C[n+]1ccn(CCO)c1.F[B-](F)(F)F , state its recorded activity coefficient.
Result: 27

Query: Given CCc1ccccc1 [ethylbenzene] + C[n+]1ccn(CCO)c1.F[B-](F)(F)F , state its recorded activity coefficient.
Result: 37.9

Query: Given C1=CCCCC1 [cyclohexene] + C[n+]1ccn(CCO)c1.F[B-](F)(F)F , state its recorded activity coefficient.
Result: 110

----------
test: activity coefficient (dimensionless); of the first substance listed, at infinite dilution; xn = mol fraction of the nth substance listed; settings: 333.15 K; Liquid; Chromatography; x1 = 0
Property Name: activity coefficient
Keep the answer to the number alone.

These solved cases illustrate the format of a correct answer.
| Molecule | Observed Result |
| --- | --- |
| Cc1cccc(C)c1 [1,3-dimethylbenzene] + C[n+]1ccn(CCO)c1.F[B-](F)(F)F | 34.7 |
| Cc1ccc(C)cc1 [1,4-dimethylbenzene] + C[n+]1ccn(CCO)c1.F[B-](F)(F)F | 33.2 |
| CCCCCCCC [octane] + C[n+]1ccn(CCO)c1.F[B-](F)(F)F | 615 |
| c1ccccc1 [benzene] + C[n+]1ccn(CCO)c1.F[B-](F)(F)F | 9.08 |

Query: Given CC(C)CC(C)(C)C [2,2,4-trimethylpentane] + C[n+]1ccn(CCO)c1.F[B-](F)(F)F , state its recorded activity coefficient.
Result: 962

----------
experiment: activity coefficient (dimensionless); of the first substance listed, at infinite dilution; xn = mol fraction of the nth substance listed; conditions: 323.15 K; Liquid; Chromatography; x1 = 0
Record y whenever activity coefficient is at 40 or higher; record n when lower.

| Compound | Classification |
| --- | --- |
| C=Cc1ccccc1 [styrene] + C[n+]1ccn(CCO)c1.F[B-](F)(F)F | n |
| CCCCCCC [heptane] + C[n+]1ccn(CCO)c1.F[B-](F)(F)F | y |
| CCCCCCCC [octane] + C[n+]1ccn(CCO)c1.F[B-](F)(F)F | y |
| c1ccccc1 [benzene] + C[n+]1ccn(CCO)c1.F[B-](F)(F)F | n |
| Cc1ccccc1 [toluene] + C[n+]1ccn(CCO)c1.F[B-](F)(F)F | n |
| CC(C)CC(C)(C)C [2,2,4-trimethylpentane] + C[n+]1ccn(CCO)c1.F[B-](F)(F)F | y |

Query: Quick check: does C1=CCCCC1 [cyclohexene] + C[n+]1ccn(CCO)c1.F[B-](F)(F)F have activity coefficient greater than or equal to 40?
Result: y

Query: Quick check: does Cc1cccc(C)c1 [1,3-dimethylbenzene] + C[n+]1ccn(CCO)c1.F[B-](F)(F)F have activity coefficient greater than or equal to 40?
Result: n

Query: Quick check: does CCCCCCCCC [nonane] + C[n+]1ccn(CCO)c1.F[B-](F)(F)F have activity coefficient greater than or equal to 40?
Result: y

Query: Quick check: does Cc1ccccc1C [1,2-dimethylbenzene] + C[n+]1ccn(CCO)c1.F[B-](F)(F)F have activity coefficient greater than or equal to 40?
Result: n

Query: Quick check: does Cc1ccc(C)cc1 [1,4-dimethylbenzene] + C[n+]1ccn(CCO)c1.F[B-](F)(F)F have activity coefficient greater than or equal to 40?
Result: n

Query: Quick check: does CC1CCCCC1 [methylcyclohexane] + C[n+]1ccn(CCO)c1.F[B-](F)(F)F have activity coefficient greater than or equal to 40?
Result: y

Query: Quick check: does C1CCCCC1 [cyclohexane] + C[n+]1ccn(CCO)c1.F[B-](F)(F)F have activity coefficient greater than or equal to 40?
Result: y
